Listed here are molecules together with their documented zone of inhibition at 750 µg/mL.
Tested on: Klebsiella pneumoniae
Assay: Antimicrobial activity against Klebsiella pneumoniae NCTC 13368 at 750 ug/ml after 24 hrs by cup plate method
Assay type: functional
Conditions: NCTC 13368, 24 h, read-out: IZ
Entry rule: numbers only, all in mm.

A selection of reference data follows.
[
  {
    "molecule": "Cc1ccc(C2=CC(c3c(-c4ccccc4)[nH]c4ccc(C)cc34)c3c(N)n[nH]c3O2)cc1 (stereo unspecified)",
    "zone of inhibition at 750 µg/mL (mm)": 10
  },
  {
    "molecule": "Cc1ccc2[nH]c(-c3ccccc3)c(C3C=C(c4ccc(Cl)cc4)Oc4[nH]nc(N)c43)c2c1 (stereo unspecified)",
    "zone of inhibition at 750 µg/mL (mm)": 12
  },
  {
    "molecule": "Nc1nc(=O)[nH]c2c1C(c1c(-c3ccccc3)[nH]c3ccc(Cl)cc13)C=C(c1ccccc1)O2 (stereo unspecified)",
    "zone of inhibition at 750 µg/mL (mm)": 10
  },
  {
    "molecule": "Cc1ccc(C2=CC(c3c(-c4ccccc4)[nH]c4ccc(C)cc34)C(C#N)=C(N)O2)cc1 (stereo unspecified)",
    "zone of inhibition at 750 µg/mL (mm)": 9
  },
  {
    "molecule": "Cc1ccc2[nH]c(-c3ccccc3)c(C3C=C(c4ccc(Cl)cc4)Oc4nc[nH]c(=O)c43)c2c1 (stereo unspecified)",
    "zone of inhibition at 750 µg/mL (mm)": 5
  },
  {
    "molecule": "Nc1nc(=O)[nH]c2c1C(c1c(-c3ccccc3)[nH]c3ccccc13)C=C(c1ccccc1)O2 (stereo unspecified)",
    "zone of inhibition at 750 µg/mL (mm)": 10
  }
]

# query: zone of inhibition at 750 µg/mL of entry O=c1[nH]cnc2c1C(c1c(-c3ccccc3)[nH]c3ccc(Cl)cc13)C=C(c1ccccc1)O2 (stereo unspecified)
9

###

System: Escherichia coli
Assay: Antimicrobial activity against Escherichia coli MTCC 723 at 750 ug/ml after 24 hrs by cup plate method
Type: functional
Conditions: MTCC 723, 24 h, read-out: IZ
Classify as follows. Reported zone of inhibition at 750 µg/mL greater than or equal to 10 mm: satisfied. Reported zone of inhibition at 750 µg/mL below: not satisfied.

[
  {
    "compound": "Nc1n[nH]c2c1C(c1c(-c3ccccc3)[nH]c3ccccc13)C=C(c1ccccc1)O2 (stereo not drawn)",
    "experimentalSystem": "Escherichia coli",
    "labelValue": "not satisfied"
  },
  {
    "compound": "Cc1ccc(C2=CC(c3c(-c4ccccc4)[nH]c4ccccc34)c3c(N)nc(=O)[nH]c3O2)cc1 (stereo not drawn)",
    "experimentalSystem": "Escherichia coli",
    "labelValue": "not satisfied"
  },
  {
    "compound": "Nc1n[nH]c2c1C(c1c(-c3ccccc3)[nH]c3ccccc13)C=C(c1ccc(Cl)cc1)O2 (stereo not drawn)",
    "experimentalSystem": "Escherichia coli",
    "labelValue": "satisfied"
  },
  {
    "compound": "N#Cc1c(N)c2c(N)c3c(nc2oc1=O)OC(c1ccc(Cl)cc1)=CC3c1c(-c2ccccc2)[nH]c2ccccc12 (stereo not drawn)",
    "experimentalSystem": "Escherichia coli",
    "labelValue": "not satisfied"
  }
]

Next item in the queue.
# bool: zone of inhibition at 750 µg/mL of Cc1ccc(C2=CC(c3c(-c4ccccc4)[nH]c4ccc(Cl)cc34)c3c(N)nc(=S)[nH]c3O2)cc1 (stereo not drawn) >= 10 mm
not satisfied
